# Test system: MDA-MB-435
# Assay protocol: NCI tumour cell line growth inhibition, 48 h
Active and inactive are the calls of the source. Cut-off read from the data, not from the text of the source: active = GI50 up to about 1.1 µM and inactive = higher.
Returns: one label drawn from yes = active, no = inactive

Compound: C/C=C/C(O)P1(=O)N(Cc2ccccc2)[C@@H]2CCCC[C@H]2N1Cc1ccccc1 (stereo not given in full)
Assigned class: no
--
Compound: Cc1nc2c(sc3nc4c(cc32)CCC4)c(=O)o1
Assigned class: no
--
Compound: C[C@H](CO)C1=CC(C#C[Si](C)(C)C)N(C(=O)Oc2ccccc2)c2ccccc21 (stereo not given in full)
Assigned class: no

Challenge: Could you please tell me the result logged for CCOC(=O)C(NC(=O)c1ccccc1)(Nc1cc(C)on1)C(F)(F)F (stereo not given) in this assay?
Response given: no

Challenge: Could you please tell me the result logged for CCOC(=O)C1=C(C)N(c2ccc(Cl)cc2)C2(O)C=CC(O)=C3C(=O)c4ccccc4C(=O)C312 (stereo not given) in this assay?
Response given: no

Challenge: Could you please tell me the result logged for O=C(NC(=S)Nc1ccc2c(c1)Sc1ccccc1O2)c1ccccc1 in this assay?
Response given: no

----------
# Test system: UACC-62
# Assay protocol: NCI tumour cell line growth inhibition, 48 h
Calls of active or inactive are those of the source. Cut-off read from the data, not from the text of the source: active = GI50 up to about 1.1 µM and inactive = higher.
Returns: one label drawn from YES (active), NO (inactive)

Compound: Cc1ccc(-n2cnc(C(=N)C#N)c2N)cc1
Measured target: UACC-62
Assigned class: NO

Compound: O=C(O)c1cc2c3ccccc3nc-2c[nH]1
Measured target: UACC-62
Assigned class: NO

Compound: C/C1=C\[C@H](C)C[C@H](C)OC(=O)C[C@H](c2ccc(O)cc2)NC(=O)[C@@H](Cc2c(Br)[nH]c3ccccc23)N(C)C(=O)[C@H](C)NC(=O)[C@@H](C)C1 [JASPAMIDE]
Measured target: UACC-62
Assigned class: YES

Compound: C/C(=N\N=C(/S)N1CC2CCC(CC2)C1)c1ccncn1
Measured target: UACC-62
Assigned class: YES

Compound: CCOC(=O)C1=C(C)N(NC(=O)OC)C2(N)N(NC(=O)OC)C(C)=C(C(=O)OCC)C12C#N (stereo unspecified)
Measured target: UACC-62
Assigned class: NO

Challenge: Could you please tell me the result logged for NC1c2c(Cl)sc(Cl)c2C(=O)C1O (stereo unspecified) in this assay?
Response given: NO

Challenge: Could you please tell me the result logged for NC(=O)c1cnc2sc3ccccc3n2c1=O in this assay?
Response given: NO

Challenge: Could you please tell me the result logged for C[C@]12CCC3[C@@H](CC[C@@H]4c5nonc5CC[C@]34C)C1C/C(=N/O)C2=O (stereo partly specified) in this assay?
Response given: NO

----------
# Test system: SK-MEL-5
# Assay protocol: NCI tumour cell line growth inhibition, 48 h
Activity calls are given as the source filed them. Rule as the data show it: active = GI50 up to about 1.1 µM and inactive = higher.
Listed below: GI50 values for each entry.

Molecule: Cc1[nH]nc(C(=O)N/N=C/c2cccs2)c1/N=N\N(C)C
Reported metric: GI50
Meas value: 19.6 µM (inactive)
//
Molecule: COc1cc(NS(C)(=O)=O)ccc1N1Cc2c[nH]c3ccc4nccc1c4c23
Reported metric: GI50
Meas value: 23.4 µM (inactive)

Challenge: Name the recorded GI50 for CC(=O)c1c2c(cc3c1CC1(Cc4ccccc4C1=O)C3)CCC2 (centres undefined) .
Response given: 10.3 µM (inactive)

Challenge: Name the recorded GI50 for CC(=O)O[C@H]1CCn2c3c(c(C)c21)C(=O)C(N1CC1)=C(C)C3=O .
Response given: 2.57 µM (inactive)

Challenge: Name the recorded GI50 for CCOC(=O)/C(C(=O)c1ccccc1)=C1/NCCN1C .
Response given: > 100 µM (inactive)

Challenge: Name the recorded GI50 for O=C1c2ccccc2C(=O)c2c(O)c(O)cc(O)c21 [PURPURIN] .
Response given: 37.9 µM (inactive)

Challenge: Name the recorded GI50 for C[N+](C)(C)c1ncnc2c1ncn2C1CCCCO1 (centres undefined) .
Response given: > 100 µM (inactive)

Challenge: Name the recorded GI50 for CCOC(=O)c1c(SCc2cc(=O)[nH]c(=O)[nH]2)n(-c2ccccc2)c(=S)n(-c2ccccc2)c1=O .
Response given: > 100 µM (inactive)

----------
Listed below: GI50 values for each entry.
# System: XF498
# Assay protocol: NCI tumour cell line growth inhibition, 48 h
The source made the active and inactive calls. No stated cut-off is given here; in the data, active = GI50 up to about 1.1 µM and inactive = higher.

Compound: CC1(O)C=CC2CCC1C2O (stereo unspecified)
GI50: > 100 µM (inactive)

Compound: O=C1C=CC(=O)c2c1ccc1c3ccccc3n(-c3ccccn3)c21
GI50: 15.6 µM (inactive)

Challenge: Name the recorded GI50 for CCOC(=O)/C(C(=O)c1ccccc1)=C1/NCCN1C .
Response given: > 100 µM (inactive)

Challenge: Name the recorded GI50 for CN(C)c1ccc(/C=N\N2C(=O)c3ccccc3C2=O)cc1 .
Response given: > 100 µM (inactive)

Challenge: Name the recorded GI50 for CCOC(=O)C1=C(C)N(NC(=O)OC)C2(N)N(NC(=O)OC)C(C)=C(C(=O)OCC)C12C#N (stereo unspecified) .
Response given: > 100 µM (inactive)

Challenge: Name the recorded GI50 for COc1ccc2ccnc(Cc3ccc(OCc4ccccc4)c(OC)c3)c2c1 .
Response given: 10.4 µM (inactive)

----------
# Tested on: OVCAR-5
# Assay protocol: NCI tumour cell line growth inhibition, 48 h
Activity calls are given as the source filed them. No stated cut-off is given here; in the data, active = GI50 up to about 1.1 µM and inactive = higher.
Reported metric: GI50

Compound: Fc1cccc(F)c1C(Nc1nncs1)Nc1nncs1
GI50: > 100 µM (inactive)
--
Compound: COC[C@@H]1Cc2cc(OC)c3c(c2[C@H](c2ccc(OC)c(OC)c2)[C@H]1COC)OCO3
GI50: > 100 µM (inactive)
--
Compound: COC(=O)C1=C(O)C(C(=O)OC)[C@]2(O)[C@H](C(=O)OC)[C@H]1C[C@@H](c1ccccc1OC)[C@H]2C(=O)OC (some centres not stated)
GI50: 6.08 µM (inactive)
--
Compound: COc1cc(C2SCC(=O)N2c2ccc(NC(C)=O)cc2)cc(OC)c1OC (configuration not stated)
GI50: > 100 µM (inactive)
--
Compound: O=[N+]([O-])c1cccc(C(O)/C(=N/O)c2nc3ccc(Cl)cc3nc2O)c1 (configuration not stated)
GI50: > 100 µM (inactive)

Challenge: Name the recorded GI50 for N#Cc1c(-c2ccc(Cl)cc2)c(-c2ccc(Cl)cc2)nn(CCOC(=O)CCC(=O)O)c1=O .
Response given: 1.27 µM (inactive)

Challenge: Name the recorded GI50 for O=Cc1c(O)ccc2ccc(O)c(-c3c(O)ccc4ccc(O)cc34)c12 .
Response given: > 100 µM (inactive)

----------
# System: SK-MEL-28
# Assay protocol: NCI tumour cell line growth inhibition, 48 h
Activity calls are given as the source filed them. Rule as the data show it: active = GI50 up to about 1.1 µM and inactive = higher.
Returns: one label drawn from Yes = active, No = inactive

Recorded results for 9 molecules are shown here.
Molecule: COc1cc(C2C3=C(COC3=O)Oc3cc4c(cc32)OCO4)cc(OC)c1OC (stereo not given)
Measured target: SK-MEL-28
Assigned class: Yes

Molecule: C[Si](C)(C)CNC(=O)OCc1ccccc1
Measured target: SK-MEL-28
Assigned class: No

Molecule: CC(=O)NC1C(OCc2ccccc2)OC(CO)C(O)C1OC(C)C(=O)NC(C(=O)NC(CCC(=O)Nc1ccc2c(c1)CN1C(=O)c3ccccc3C1=N2)C(N)=O)C(C)C (stereo not given)
Measured target: SK-MEL-28
Assigned class: No

Molecule: Clc1ccc(Cl)c(NNc2cc(Cl)ccc2Cl)c1
Measured target: SK-MEL-28
Assigned class: No

Molecule: CC1=C(C)CC(C#N)(C#N)C(C#N)(C#N)C1
Measured target: SK-MEL-28
Assigned class: No

Molecule: C[C@H](CO)C1=CC(C#C[Si](C)(C)C)N(C(=O)Oc2ccccc2)c2ccccc21 (stereo not given in full)
Measured target: SK-MEL-28
Assigned class: No

Molecule: C=CC1=CSNN1
Measured target: SK-MEL-28
Assigned class: No

Molecule: Cc1cn([C@@H]2C[C@H]2CO)c(=O)[nH]c1=O
Measured target: SK-MEL-28
Assigned class: No

Molecule: CSC1=N/C(=C\c2ccc(C)cc2)C(=O)N1CN1CCOCC1
Measured target: SK-MEL-28
Assigned class: No

Challenge: Could you please tell me the result logged for CCCCCCCCCC1CC(=O)NCC(=O)NC(C(C)C)C(=O)NC(CC(C)C)C(=O)NC(C)C(=O)NC(C(C)C)C(=O)O1 (stereo not given) in this assay?
Response given: No

----------
# Tested on: CCRF-CEM
# Assay protocol: NCI tumour cell line growth inhibition, 48 h
Activity calls are given as the source filed them. Cut-off read from the data, not from the text of the source: active = GI50 up to about 1.1 µM and inactive = higher.
Reported metric: GI50

Compound: O=C(NCCCCNCCCNC(=O)OCc1ccccc1)OCc1ccccc1
GI50: 31 µM (inactive)
--
Compound: CON(C)C(=O)CCCO
GI50: > 100 µM (inactive)
--
Compound: C=C(C(=O)OC)N1C(=O)CC(C)C1=O (stereo not drawn)
GI50: 1.7 µM (inactive)
--
Compound: C=Cc1ccc(C)[n+](C[Si](C)(C)O[Si](C)(C)C)c1
GI50: > 100 µM (inactive)
--
Compound: COc1ccc(C(=O)C(C(=O)CCC(=O)Nc2cccc(C(F)(F)F)c2)c2ccccc2)cc1 (stereo not drawn)
GI50: 46.8 µM (inactive)

Kindly review the next compound as well.
Challenge: Name the recorded GI50 for C/C=C/C(O)P1(=O)N(Cc2ccccc2)[C@@H]2CCCC[C@H]2N1Cc1ccccc1 (stereo partly drawn) .
Response given: > 25 µM (inactive)
